Reported % inhibition apPOL 180' values for a set of compounds
molecular target: P. falciparum apicoplast DNA polymerase (Pf-apPOL) (Plasmodium falciparum, UniProt Q8ILY1); experiment: Fluorescence-based high-throughput DNA polymerase assay (molecular beacon), primary screen and dose-response; format: biochemical; details: DRC-2; 180'; concentration 5;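 as to % inhibition apPOL 180': test concentration in µM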
Sequence (Q8ILY1 entry or part of it): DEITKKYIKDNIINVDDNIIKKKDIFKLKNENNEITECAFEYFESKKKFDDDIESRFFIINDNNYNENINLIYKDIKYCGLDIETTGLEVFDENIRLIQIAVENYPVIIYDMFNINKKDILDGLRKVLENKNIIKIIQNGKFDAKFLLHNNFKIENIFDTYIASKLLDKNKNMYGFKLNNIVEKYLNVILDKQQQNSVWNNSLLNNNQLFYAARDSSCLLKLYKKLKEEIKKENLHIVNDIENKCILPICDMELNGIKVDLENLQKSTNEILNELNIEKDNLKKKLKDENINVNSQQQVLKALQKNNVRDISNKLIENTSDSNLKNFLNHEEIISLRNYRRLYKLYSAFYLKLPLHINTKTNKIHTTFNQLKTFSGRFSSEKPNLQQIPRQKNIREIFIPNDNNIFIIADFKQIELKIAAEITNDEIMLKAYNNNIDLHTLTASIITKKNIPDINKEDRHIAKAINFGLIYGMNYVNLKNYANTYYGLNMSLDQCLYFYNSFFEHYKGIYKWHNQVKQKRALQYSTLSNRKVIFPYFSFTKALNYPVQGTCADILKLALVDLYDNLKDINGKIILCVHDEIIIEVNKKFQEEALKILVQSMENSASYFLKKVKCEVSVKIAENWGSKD
Give the value; after it, write the unit.

compound=O=C(Nc1c2c(nn1-c1ccc(Oc3ccccc3)cc1)CSC2)c1ccco1 property_label="% inhibition apPOL 180'" result=3.19%
compound=CCCCCc1c2c(cc(O)c1C(=O)O)OC(=O)c1c(cc(OC)cc1C(=O)CCCC)O2 property_label="% inhibition apPOL 180'" result=11%
compound=O=c1[nH]c2ccc([N+](=O)[O-])cc2c(-c2ccccc2)c1Sc1nc2ccccc2o1 property_label="% inhibition apPOL 180'" result=-0.499%
compound=Cc1ccc(N2NC(=O)/C(=C\c3ccc(O)c([N+](=O)[O-])c3)C2=O)cc1Cl property_label="% inhibition apPOL 180'" result=9%
compound=COCCN(CCOC)Cc1c(O)ccc2c1OC(=Cc1cc(Br)ccc1OC)C2=O property_label="% inhibition apPOL 180'" result=-68%
compound=O=C1C(=Cc2ccncc2)Oc2c1ccc1c2CN(Cc2ccc3c(c2)OCO3)CO1 property_label="% inhibition apPOL 180'" result=-87%
compound=O=C1C(=Cc2ccccc2O)Oc2ccc(O)cc21 property_label="% inhibition apPOL 180'" result=-88%

Let us move to another entry and its % inhibition apPOL 180'.
Query block: Which % inhibition apPOL 180' value is on record for C#CC(C=CC)OC(=O)c1ccccc1C(=O)O (centres unmarked) ?
Result block: -4%

----------
biological target: P. falciparum apicoplast DNA polymerase (Pf-apPOL) (Plasmodium falciparum); experiment: Fluorescence-based high-throughput DNA polymerase assay (molecular beacon), primary screen and dose-response; format: biochemical; settings: DRC-2; 5'; conc 5
Threshold rule: % inhibition Apo pol 5' greater than or equal to 20% is yes (1); below that, no (0).

Look over these answered cases.
compound="Cc1ccccc1NC(=O)Cn1ccc2c(=O)[nH]ccc21 [Molecule 50, O=C(Cn1ccc2c1cc[nH]c2=O)Nc1ccc(cc1)C]" experimental_target="P. falciparum apicoplast DNA polymerase (Pf-apPOL) (Plasmodium falciparum)" assigned_label="no (0)"
compound="Cc1cccc(NC(=O)Cn2ccc3c(=O)[nH]ccc32)c1C [Molecule 11, O=C(Cn1ccc2c1cc[nH]c2=O)Nc1cccc(c1C)C]" experimental_target="P. falciparum apicoplast DNA polymerase (Pf-apPOL) (Plasmodium falciparum)" assigned_label="yes (1)"
compound="CCOc1nc2cccc(C(=O)OC(C)OC(=O)OC3CCCCC3)c2n1Cc1ccc(-c2ccccc2-c2nnn[nH]2)cc1 (stereo not drawn)" experimental_target="P. falciparum apicoplast DNA polymerase (Pf-apPOL) (Plasmodium falciparum)" assigned_label="no (0)"
compound=C=CCOc1c(Br)cc(Br)cc1/C=C1\SC(=N)NC1=O experimental_target="P. falciparum apicoplast DNA polymerase (Pf-apPOL) (Plasmodium falciparum)" assigned_label="no (0)"

Query block: Reported % inhibition Apo pol 5' reaches at least 20% for O=C1NN(c2ccc(Cl)c(Cl)c2)C(=O)/C1=C/c1ccc(-c2ccc3c(c2)C(=O)OC3)o1 ?
Result block: no (0)

Query block: Reported % inhibition Apo pol 5' reaches at least 20% for COc1ccccc1C1CC(=O)Oc2cc3c(cc21)OCO3 (stereo not drawn) ?
Result block: yes (1)

Query block: Reported % inhibition Apo pol 5' reaches at least 20% for Cc1ccc(NC(=O)Cn2ccc3c(=O)[nH]ccc32)c(C)c1 ?
Result block: no (0)

Query block: Reported % inhibition Apo pol 5' reaches at least 20% for O=c1nc(/C=C/c2ccc(Br)cc2)oc2ccccc12 ?
Result block: no (0)

Query block: Reported % inhibition Apo pol 5' reaches at least 20% for Cc1cccc(C2=N/C(=C\c3ccc([N+](=O)[O-])o3)C(=O)O2)c1 ?
Result block: yes (1)

Query block: Reported % inhibition Apo pol 5' reaches at least 20% for COC(=O)c1sc(-c2ccc(C(C)(C)C)cc2)cc1NC(=O)CCC(=O)O ?
Result block: no (0)

Query block: Reported % inhibition Apo pol 5' reaches at least 20% for Cc1cc(C)c2c(c1)C1C=CCC1C(c1ccc(C(=O)O)cc1)N2 (stereo not drawn) ?
Result block: yes (1)

Query block: Reported % inhibition Apo pol 5' reaches at least 20% for Cc1ccc(CNC(=O)c2cnn3c(O)cc(CSc4ccc(Cl)cc4)nc23)cc1 ?
Result block: yes (1)

Query block: Reported % inhibition Apo pol 5' reaches at least 20% for N#CC(C#N)=C1SCN(c2cccc(Cl)c2)CS1 ?
Result block: yes (1)

Query block: Reported % inhibition Apo pol 5' reaches at least 20% for O=C1Nc2ccc(I)cc2C1=Cc1cc(Br)c(O)c(Br)c1 ?
Result block: no (0)

Query block: Reported % inhibition Apo pol 5' reaches at least 20% for Cc1ccc(N2NC(=O)/C(=C\c3ccc(O)c([N+](=O)[O-])c3)C2=O)cc1Cl ?
Result block: yes (1)

Query block: Reported % inhibition Apo pol 5' reaches at least 20% for O=C(O)c1ccc(COc2cc([N+](=O)[O-])cc3cccnc23)cc1 ?
Result block: yes (1)

Query block: Reported % inhibition Apo pol 5' reaches at least 20% for C=CC1=C(C)c2cc3[nH]c(cc4nc(cc5[nH]c(cc1n2)c(C)c5CCC(=O)O)C(CCC(=O)O)=C4C)c(C)c3C=C ?
Result block: yes (1)
